# METHOD: Half life in male Sprague-Dawley rat at 1.5 mg/kg, iv administered as single dose by LC-MS/MS analysis
# Assay type: ADME, organism-based
# TEST_PARAMETERS: in vivo
READOUT_NAME: half-life (min)
Express your answer in min, writing the number without its unit.

Data request: // query half-life value for entry COC(=O)N1N=C(c2cccc(C)c2)CC1c1cc(OC)c(OC)c(OC)c1 (stereo unspecified)
Data returned: 52.2

---

# METHOD: MRT (0 to infinity) in Sprague-Dawley rat at 1.5 mg/kg, iv administered as single dose by LC-MS/MS analysis
# Format: ADME, organism-based
# TEST_PARAMETERS: in vivo
READOUT_NAME: MRT inf (h)
Express your answer in h, writing the number without its unit.

Data request: // query MRT inf value for entry COC(=O)N1N=C(c2cccc(C)c2)CC1c1cc(OC)c(OC)c(OC)c1 (stereo unspecified)
Data returned: 1.09
